Hello, the source for this data is ChEMBL document CHEMBL1201862, in case you need it.

- Test system: HCT-116
- ASSAY_METHOD_TEXT: NCI tumour cell line growth inhibition, 48 h
The source made the active and inactive calls. No stated cut-off is given here; in the data, active = GI50 up to about 1.1 µM and inactive = higher.
This listing pairs molecules with measured GI50.
EXPERIMENTAL_READOUT: GI50

{"MOLECULE": "C[C@@H](c1ccccc1)N(CC#N)C1CCC[C@H]1O (stereo partly specified)", "EXPERIMENTAL_READOUT": "GI50", "OBSERVED_RESULT": "> 100 µM (inactive)"}
{"MOLECULE": "O=C(NC(c1ccccc1)C(O)C(=O)OCc1ccc2c(c1)C(=O)c1ccccc1C2=O)c1ccccc1 (stereo unspecified)", "EXPERIMENTAL_READOUT": "GI50", "OBSERVED_RESULT": "3.94 µM (inactive)"}
{"MOLECULE": "N#C/C(=C/c1ccc([N+](=O)[O-])o1)c1ccccc1", "EXPERIMENTAL_READOUT": "GI50", "OBSERVED_RESULT": "> 100 µM (inactive)"}
{"MOLECULE": "Cc1nnc2sc(NN)nn12", "EXPERIMENTAL_READOUT": "GI50", "OBSERVED_RESULT": "> 100 µM (inactive)"}
{"MOLECULE": "Cc1cnc2cc(Cl)ccc2c1SCC(=O)O", "EXPERIMENTAL_READOUT": "GI50", "OBSERVED_RESULT": "> 100 µM (inactive)"}
{"MOLECULE": "Oc1nnc(-c2ccc(F)cc2)cc1-c1ccccc1", "EXPERIMENTAL_READOUT": "GI50", "OBSERVED_RESULT": "> 100 µM (inactive)"}
{"MOLECULE": "CC(C)=CCc1cc(/C=C/C(=O)O)cc(CC=C(C)C)c1O [ARTEPILLIN]", "EXPERIMENTAL_READOUT": "GI50", "OBSERVED_RESULT": "> 100 µM (inactive)"}
{"MOLECULE": "COC(=O)/C=C(/C=C1/C(C#N)=C(N)N(c2ccc(Cl)cc2)C1(C)/C(=C/C(=O)OC)C(=O)OC)C(=O)OC (stereo unspecified)", "EXPERIMENTAL_READOUT": "GI50", "OBSERVED_RESULT": "28.9 µM (inactive)"}
{"MOLECULE": "COC(=O)c1ccccc1/C=C1\\Cc2cc(C)c(C)cc2C1=O", "EXPERIMENTAL_READOUT": "GI50", "OBSERVED_RESULT": "> 100 µM (inactive)"}
{"MOLECULE": "BrC1=CC=C2NC=CC3=CC=NC1C32 (stereo unspecified)", "EXPERIMENTAL_READOUT": "GI50", "OBSERVED_RESULT": "6.03 µM (inactive)"}
{"MOLECULE": "O=C(NCCCCCCCCCCCCNC(=O)c1cccc2ccccc12)c1cccc2ccccc12", "EXPERIMENTAL_READOUT": "GI50", "OBSERVED_RESULT": "> 57.9 µM (inactive)"}
